Entries and their IC50 values follow.
subject-of-test: Human immunodeficiency virus type 1 reverse transcriptase (Human immunodeficiency virus 1, UniProt Q72547)
test-summary: Inhibition of recombinant wild type HIV1 reverse transcriptase assessed as decrease in biotin-dUTP incorporation using DIG-labeled dUTP/biotin-labeled dUTP and dTTP as template and viral nucleotides after 1 hr by ELISA
property-measured: IC50

[[record]]
compound = "COCCNC(=O)CSc1cnc(Nc2ccc(C#N)cc2)nc1Oc1c(C)cc(C#N)cc1C"
reported = "26 nM"

[[record]]
compound = "Cc1cc(C#N)cc(C)c1Oc1nc(Nc2ccc(C#N)cc2)ncc1SCC(=O)NC1CC1"
reported = "21 nM"

[[record]]
compound = "Cc1cc(C#N)cc(C)c1Oc1nc(Nc2ccc(C#N)cc2)ncc1SCC(=O)NCCN1CCN(C(=O)OC(C)(C)C)CC1"
reported = "13 to 863 nM"

[[record]]
compound = "Cc1cc(C#N)cc(C)c1Oc1nc(Nc2ccc(C#N)cc2)ncc1SCC(=O)NCC1CCCO1 (configuration not stated)"
reported = "13 to 863 nM"

[[record]]
compound = "Cc1cc(C#N)cc(C)c1Oc1nc(Nc2ccc(C#N)cc2)ncc1SCC(=O)C(=O)O"
reported = "13 to 863 nM"

[[record]]
compound = "Cc1cc(C#N)cc(C)c1Oc1nc(Nc2ccc(C#N)cc2)ncc1SCC(=O)Nc1ccc(S(C)(=O)=O)cc1"
reported = "13 to 863 nM"

[[record]]
compound = "Cc1cc(C#N)cc(C)c1Oc1nc(Nc2ccc(C#N)cc2)ncc1SCC(N)=O"
reported = "13 to 863 nM"

[[record]]
compound = "Cc1cc(C#N)cc(C)c1Oc1nc(Nc2ccc(C#N)cc2)ncc1SCC(=O)N1CCSCC1"
reported = "13 to 863 nM"

[[record]]
compound = "Cc1cc(C#N)cc(C)c1Oc1nc(Nc2ccc(C#N)cc2)ncc1SCC(=O)NCC1CC1"
reported = "13 to 863 nM"

[[record]]
compound = "Cc1cc(C#N)cc(C)c1Oc1nc(Nc2ccc(C#N)cc2)ncc1SCC(=O)N1CC[C@H](NC(=O)OC(C)(C)C)C1"
reported = "13 to 863 nM"

[[record]]
compound = "Cc1cc(C#N)cc(C)c1Oc1nc(Nc2ccc(C#N)cc2)ncc1SCC(=O)NC1CCN(C(=O)OC(C)(C)C)CC1"
reported = "13 to 863 nM"

[[record]]
compound = "Cc1cc(C#N)cc(C)c1Oc1nc(Nc2ccc(C#N)cc2)ncc1SCC(=O)N1CCN(C(=O)OC(C)(C)C)CC1"
reported = "13 to 863 nM"


----------
System: Human immunodeficiency virus 1
test-summary: Potency index, ratio of etravirine EC50 to compound EC50 for HIV1 harboring reverse transcriptase K103N mutant infected in human MT4 cells
Format: functional
Entries and their Ratio EC50 values follow.
property-measured: Ratio EC50

[[record]]
structure_notation = "Cc1cc(C#N)cc(C)c1Oc1nc(Nc2ccc(C#N)cc2)ncc1SCC(=O)NCCCN1CCOCC1"
reported = "1.5 - 3"

[[record]]
structure_notation = "COCCNC(=O)CSc1cnc(Nc2ccc(C#N)cc2)nc1Oc1c(C)cc(C#N)cc1C"
reported = "1.3 - 2.3"

[[record]]
structure_notation = "Cc1cc(C#N)cc(C)c1Oc1nc(Nc2ccc(C#N)cc2)ncc1SCC(=O)NC1CC1"
reported = "1.3 - 2.3"

[[record]]
structure_notation = "C=CCNC(=O)CSc1cnc(Nc2ccc(C#N)cc2)nc1Oc1c(C)cc(C#N)cc1C"
reported = "1.3 - 2.3"

[[record]]
structure_notation = "C#CCNC(=O)CSc1cnc(Nc2ccc(C#N)cc2)nc1Oc1c(C)cc(C#N)cc1C"
reported = "1.3 - 2.3"

[[record]]
structure_notation = "Cc1cc(C#N)cc(C)c1Oc1nc(Nc2ccc(C#N)cc2)ncc1SCC(=O)NCCN1CCOCC1"
reported = "1.3 - 2.3"

